For each record, write down the corresponding TGI.
tested on: KM20L2 colon; assay: NCI tumour cell line growth inhibition, 48 h

Molecule | Reported property | Value observed
O=C(/C=C/c1ccccc1O)C(c1ccccc1)c1ccccc1 | TGI | > 100 µM
COc1ccc2c(c1)CC[C@@H]1C2CC[C@]2(C)C(=O)N(CCN3CCCC3)C(=O)CC12 (stereo partly drawn) | TGI | 55 µM

Please examine the following record next.
Prompt: Tell me the measured TGI of Cc1cc(Br)ccc1NC1=CC(=O)C(=O)c2ccccc21 , please.
Completion: > 100 µM

###

test system: SR leukemia; test: NCI tumour cell line growth inhibition, 48 h; in the data active = GI50 below about 0.43 µM; inactive = the rest
Valid outcomes are listed here; reply with one: Y for active, N for inactive

Past entries and their recorded results:
Compound | Assigned label
COc1cc2c3c(n(CCCN(C)C)c(=O)c2cc1OC)-c1cc2c(cc1C3=O)OCO2 | Y
O=C(CCl)Nc1ccc2c(Nc3cc(O)ccc3Cl)ncnc2c1 | N
CO/N=C/C=C\C(=O)N/C=C/C[C@H]1/C=C/[C@H](O)/C=C\C=C\c2cccc(O)c2C(=O)O1 | Y
O=C(CC1(O)C(=O)N(Cc2ccccc2)c2ccc(Br)cc21)c1ccc(C(=O)NCC2CCC3(CC2)OOC2(CCCCC2)OO3)cc1 (centres undefined) | Y

Prompt: Returns: the outcome recorded for N#CCCN1C/C(=C/c2ccccc2)C(=O)/C(=C/c2ccccc2)C1 in this assay.
Completion: Y

Prompt: Again, but for COc1ccc(C(=O)/C=C/c2ccc(OCc3ccc(Cl)cc3)cc2)cc1OC
Completion: N
